Tested on: Fibroblast
Protocol summary: Multiplex assay against human fibroblast
Assay type: toxicity, cell-based
Run conditions: 48 h, 1 µM, compound concentration 1 uM, replicate 2
Reported property: Population Tubulin-Different-Phenotype (%)
Express it in %; write the number only.

Compound	Measured number
CC(C)OC(=O)N1CCC(Oc2ncnc3c2cnn3-c2ccc(S(C)(=O)=O)cc2F)CC1	44
COc1cc2ncn(-c3cc(OCc4ccccc4C(F)(F)F)c(C(N)=O)s3)c2cc1OC [GW843682X]	53
CCCSc1nc(N[C@@H]2C[C@H]2c2ccc(F)c(F)c2)c2nnn([C@@H]3C[C@H](OCCO)[C@@H](O)[C@H]3O)c2n1 [TICAGRELOR]	57
CC(C)(C)NC[C@H](O)COc1nsnc1N1CCOCC1 [TIMOLOL]	23
Cc1ccc2c(c1)c1c(n2CCc2ccc(C)nc2)CCN(C)C1 [LATREPIRDINE]	56

Summary for this compound, Cl.O=C(O)c1cc(-c2ccc(C3CCNCC3)cc2)c2ccc(-c3ccc(C(F)(F)F)cc3)cc2c1 : Population Tubulin-Different-Phenotype (%) is 26

* * *

System: HEK-293T
Protocol summary: Multiplex assay against HEK293T
Assay type: toxicity, cell-based
Run conditions: human, 12 h, 10 µM, compound concentration 10 uM, replicate 1
Each entry below carries its reported Population Fragmented Nuclei (%).
Express it in %; write the number only.

Molecule	Measured number
COc1ccccc1CN[C@H]1C2CCN(CC2)[C@H]1C(c1ccccc1)c1ccccc1 [CP-96345]	9
COC(=O)C1=C(C)NC(C)=C(C(=O)OCCCN2CCC(c3ccccc3)(c3ccccc3)CC2)[C@H]1c1cccc([N+](=O)[O-])c1 [NIGULDIPINE]	18
C[C@]12CC[C@@H]3c4ccc(O)cc4CC[C@H]3[C@@H]1CC[C@@H]2O [ESTRADIOL]	11
CN1CCN(Cc2ccc(Nc3ncc(Cl)c(Nc4ccccc4S(=O)(=O)N(C)C)n3)cc2)CC1 [DUBERMATINIB]	11
Cc1cccc(CN2CCN(C(c3ccccc3)c3ccc(Cl)cc3)CC2)c1.Cl.Cl (stereo not drawn)	10

Summary for this molecule, C=CC(=O)Nc1cccc(Oc2nc(Nc3ccc(N4CCN(C)CC4)cc3OC)ncc2Cl)c1 : Population Fragmented Nuclei (%) is 10

Summary for this molecule, COc1cc(Nc2nccc(-c3cnn4nc(OC)ccc34)n2)cc(C(F)(F)F)c1 : Population Fragmented Nuclei (%) is 33

Summary for this molecule, C=CC(=O)Nc1cccc(Sc2nc(Nc3ccc(N4CCN(C)CC4)cc3)ncc2Cl)c1 : Population Fragmented Nuclei (%) is 26

* * *

Test system: HEK-293T
Protocol summary: Multiplex assay against HEK293T
Format: toxicity, cell-based
Run conditions: human, 24 h, 1 µM, compound concentration 1 uM, replicate 1
Reported property: Population Mitotic Cells (%)
Express it in %; write the number only.

Examples from the recorded data:
Compound	Reported property	Measured number
Cc1ccc(C)c(Oc2ccncc2C(=O)N2CCN(C3CC3)c3ccccc32)c1	Population Mitotic Cells (%)	53
CC(C)OC(=O)N1CCC(Oc2ncnc3c2cnn3-c2ccc(S(C)(=O)=O)cc2F)CC1	Population Mitotic Cells (%)	48
O=C(c1cc2c(cc1F)OC(c1ccc(F)cc1)(c1ccc(Cl)cc1Cl)O2)N1CCOCC1 (stereo unspecified)	Population Mitotic Cells (%)	51

Summary for this compound, O=c1[nH]c2ccccc2n1C1CCN(Cc2ccc(-c3[nH]c4cc5ncnc5cc4nc3-c3ccccc3)cc2)CC1 : Population Mitotic Cells (%) is 88

Summary for this compound, C=CC(=O)Nc1cccc(Oc2nc(Nc3ccc(N4CCN(C)CC4)cc3OC)ncc2Cl)c1 : Population Mitotic Cells (%) is 63
